melting point for assorted compounds

Example cases with answers are listed next.
CCCOc1ccccc1-c1nc2nc(N(C)C)ncc2c(=O)[nH]1: 178 °C
COc1ccc(Cc2c(C)c3c(N)nc(N)nc3[nH]c2=O)cc1OC: 346 to 348 °C
Nc1ncc(-c2ccc3ncc(-c4ccc(CN5CCC(C(=O)N6CCCCC6)CC5)cc4)n3n2)cc1C(F)(F)F: 263 to 266 °C
CCOC(=O)c1c(CC(=O)O)n(-c2ccc(OC(F)(F)F)cc2)c2ccc(Oc3ccc(CCl)cn3)cc12: 168 to 170 °C

Please find the next compound below.
-- ask Please report the measured melting point for "CCCCNc1c(C#N)cnc2cc(OCCOC)c(OC)cc12"
-- reply 99 to 102 °C

====

value.type: melting point (°C)
State the answer as a number, implicitly in °C.

COC(=O)CSC1NC(=O)c2sccc2-n2cccc21 (stereo not given): 158

Please find the next molecule below.
-- ask Please report the measured melting point for "CN(c1cccc2cc(-c3nccs3)[nH]c12)S(=O)(=O)c1ccsc1COCC(=O)O"
-- reply 189

====

value.type: melting point

Example cases with answers are listed next.
Cn1ccc(Nc2n[nH]c3c(OCCc4ccccn4)cc(-c4ncccc4Cl)cc23)n1: 89 to 91 °C
CC(C)(CO)CCCC(O)CCCC(O)CCCC(C)(C)CO (stereo not given): 85 to 86 °C
CC1OC(COc2ccc(Cl)cc2)OC1=O (stereo not given): 53 to 55 °C
COCc1nc(C(C)(C)O)c(C(=O)OC)[nH]1: 94.5 to 96 °C
CC(C)(CO)Oc1ccccc1: 91 to 92 °C

-- ask Please report the measured melting point for "O=C(CN1CCC(Cc2ccccc2)CC1)Nc1cccc([N+](=O)[O-])c1"
-- reply 102 to 104 °C

-- ask Please report the measured melting point for "COc1cccc2oc(=O)c3c4c(ccc3c12)NC(C)(C)C=C4C"
-- reply 247 to 248 °C

====

melting point for assorted compounds

Example cases with answers are listed next.
CC(C)Cn1c(CO)c(-c2ccccc2)c2cc(Br)ccc2c1=O: 176 to 177 °C
CCC(CC)c1nn(-c2ccc(C(F)(F)F)cn2)cc1CCCOc1ccccc1CC(=O)O: 65 to 66 °C
CC(OCc1cccnc1)C(=O)Nc1ccc(C(=O)Nc2ccccc2N)cc1 (stereo not given): 144 to 148 °C
CCOC(=O)Cn1nnc(-c2cccc(OCc3ccc4ccccc4n3)c2)n1: 111 to 113 °C
CCCCS(=O)(=O)NC1Cc2ccc(C3=NNC(=O)CC3(C)C)cc2C1 (stereo not given): 159 to 161 °C

-- ask Please report the measured melting point for "Nc1nc(-c2ccc(CCN3CCN(c4cccc5cccnc45)CC3)cc2)cs1"
-- reply > 225 °C

====

melting point for assorted compounds

-- ask Please report the measured melting point for "CCCCC(=O)Nc1ccc(C(F)(F)F)c(-n2nc(CC)n(Cc3ccc(-c4ccccc4S(=O)(=O)NC(=O)OC(C)(C)C)cc3F)c2=O)c1"
-- reply 121 to 123 °C

-- ask Please report the measured melting point for CCOC(=O)C1=C(C)NC(CCn2ccnc2)=C(C(=O)OCC)C1c1ccccc1[N+](=O)[O-] (centres undefined)
-- reply 140 to 141 °C

-- ask Please report the measured melting point for "CCC1(CC)c2cc(-c3nc4ccccc4s3)ccc2-c2ccc(N(c3ccc(O)cc3)c3ccc(O)cc3)cc21"
-- reply 294 to 297 °C

-- ask Please report the measured melting point for "Cc1cccc(NS(=O)(=O)c2ccc(OCc3nc(-c4ccccc4)oc3C)cc2)c1C(=O)O"
-- reply 167 to 170 °C

====

value.type: melting point

Example cases with answers are listed next.
COc1ccc(-c2cc3ncc(SC)c(O)c3s2)cc1: 283 to 287 °C
CN1CCN(c2ccc(NC=C3C(=O)NC(=O)c4ccc(OCCN5CCOCC5)cc43)cc2)CC1: 142 to 143 °C
COC(=O)CCCS(=O)c1c(Cc2cccc3ccccc23)sc2c1c(=O)n(C)c(=O)n2CC(C)C (stereo not given): 160 to 161 °C
CC(C)(C)c1ccc(N2CCNCC2)cc1: 48 to 52 °C
O=C(c1ccccc1F)C1CCN(CCc2c[nH]c3ccccc23)CC1: 106 to 108 °C
C=CCO[C@H]1[C@H](C)OC(=O)[C@@H](NC(=O)c2nccc(OC)c2OCc2ccccc2)COC(=O)[C@@H]1Cc1ccccc1: 55 to 57 °C

-- ask Please report the measured melting point for "CCCCOc1c(CN2C(=O)c3ccccc3C2=O)n(CC2CC2)c(=O)c2ccc(OCc3ccccc3)cc12"
-- reply 127 to 128 °C

-- ask Please report the measured melting point for "O=C(O)[C@H](Cc1ccccc1)N[C@@H](Cc1c[nH]c2ccccc12)C(=O)OCc1ccccc1"
-- reply 147 to 150 °C

-- ask Please report the measured melting point for "N=C(NO)c1ccc(-c2cccc(-c3nc4cc(C(=N)NO)ccc4[nH]3)c2)nc1"
-- reply 295 to 297 °C

-- ask Please report the measured melting point for COCn1ccnc1C(O)(c1ccc(Cl)cc1)c1ccc(C(C)(C)C)cc1 (stereo not given)
-- reply 162 to 163 °C

-- ask Please report the measured melting point for "CCCC(CCC)C(=O)N[C@@H](Cc1ccccc1)C(=O)N[C@H]1CCOC1=O"
-- reply 203 to 205 °C

-- ask Please report the measured melting point for "CCc1cccc(-n2ncc(C(=O)O)c2C(N)=O)c1"
-- reply 176 to 178 °C

-- ask Please report the measured melting point for "O=C(O)[C@@H](O)CNC(=O)C(F)(F)F"
-- reply 142 to 143 °C

-- ask Please report the measured melting point for CCOC(=O)C(CC)C(O)(c1ccccc1)c1ccc(O)cc1 (stereo not given)
-- reply 46 to 53 °C

-- ask Please report the measured melting point for "O=C(NCC1CCOCC1)Nc1ccc(C(F)(F)F)cc1"
-- reply 148 to 149 °C

====

value.type: melting point (°C)
State the answer as a number, implicitly in °C.

Example cases with answers are listed next.
CC12CCC(=O)C=C1CCC(=Cc1ccccc1)C2=O (stereo not given): 88
CCCn1c(=O)c2[nH]c(/C=C/c3ccccc3F)nc2n(CCC)c1=O: 259
CCOC(=O)c1cc(NCc2ccccc2)c(Nc2ccc(Cl)cc2)c(S(N)(=O)=O)c1: 187

-- ask Please report the measured melting point for O=C(Nc1nccs1)c1cccc(C[C@@H]2COc3ccc(OCc4nc5cc(F)ccc5s4)cc3[C@@H]2O)c1 (relative stereo)
-- reply 120

-- ask Please report the measured melting point for "Cc1cc(N)nc(CCC(=O)Nc2cc(I)cnc2N)c1"
-- reply 172

====

melting point for assorted molecules

Example cases with answers are listed next.
O=C(c1ccc(F)cc1)N1CCc2cc(S(=O)(=O)N3CC(c4ccccc4)NC3=O)ccc21 (stereo not given): 134 °C
COC(=O)c1ccc(S(C)(=O)=O)c(C2=NOC(C)(OC)C2)c1Cl (stereo not given): 100 to 105 °C
CN(C)Cc1cc2ccc(-c3nnc(CSCCOc4ccccc4)o3)cc2[nH]1: 128 to 130 °C
Cc1nnc(-c2ccc3occ(-c4ccc(S(=O)C(C)C)cc4)c3c2)o1 (stereo not given): 157 to 158 °C
COc1cccc2c1CCC(C=O)C2=O (stereo not given): 68 to 70 °C

-- ask Please report the measured melting point for "Cc1noc(-c2ccccc2NC(=O)OC2CCNCC2)n1"
-- reply 141 to 142 °C

-- ask Please report the measured melting point for "CCOC(=O)Cc1ccc(-c2nc(COc3ccc(CO)cc3OC)c(C)o2)cc1"
-- reply 97 to 98 °C

-- ask Please report the measured melting point for O=C1C2CCCC2=Nc2ccccc2N1Cc1ccccc1F (stereo not given)
-- reply 135 to 137 °C

-- ask Please report the measured melting point for O=C(NNC(=O)C(F)(F)C(O)(Cn1cncn1)c1ccc(F)cc1F)c1ccc(F)cc1 (stereo not given)
-- reply 127 to 130 °C

-- ask Please report the measured melting point for "CC(C)(O)C(=O)c1ccc(OCC(N)=O)cc1"
-- reply 139 °C

====

value.type: melting point

Example cases with answers are listed next.
CC(=NO)c1ccnc(C)c1: 151 to 152 °C
Cc1cc(COC2=NS(=O)(=O)c3ccccc32)sn1: 202 to 204 °C
O=C(O)CCCCNC(=O)c1ccccc1NC(=O)c1ccccc1O: 168 to 170 °C
Nc1n[nH]c2c(C(F)(F)F)cccc12: 101 to 102 °C
CC(C)(C)c1ccc(C2OCC(CO)(NC(=O)c3c(Cl)cccc3Cl)CO2)cc1 (stereo unspecified): 178 to 180 °C

Please find the next molecule below.
-- ask Please report the measured melting point for "O=C(CCC1CCNCC1)c1cc2c3c(c1)CCN3C(=O)CC2"
-- reply 114 to 115 °C

====

melting point for assorted compounds

Example cases with answers are listed next.
O=c1n(-c2ccc(OCC(F)(F)C(F)F)cc2)cnn1CC(O)(Cn1cncn1)c1ccc(F)cc1F (racemic): 79 to 80 °C
C#Cc1cccc(Nc2ncnc3ccc(S(=O)(=O)n4ccc(C=CC(=O)Nc5ccccc5N)c4)cc23)c1: 150 to 153 °C
CN(C)C=CC(=O)c1cccc(OCC(O)CN2CCN(c3ccc(Cl)cc3)CC2)c1 (centres undefined): 144 to 145 °C

Please find the next compound below.
-- ask Please report the measured melting point for CC1CCN(c2ncc(Br)cc2C=O)C1 (centres undefined)
-- reply 72 to 73 °C
